Can you tell me IC50 for the items I'm about to list?
- assayed-target: Human LDHA (Homo sapiens (Human), UniProt P00338)
- test-protocol: human LDHA primary biochemical assay
- condition: biochemical LDHA inhibitory activity, assay of Example 1; activity level classes defined in nM

Some compounds with recorded IC50:
smi: NS(=O)(=O)c1ccc(Cc2c(-c3cccc(C#Cc4ccc(Cl)s4)c3)nn(-c3nc(C(=O)O)cs3)c2CC2CC2)cc1F
IC50: < 100 nM

smi: NS(=O)(=O)c1ccc(Cc2c(-c3ccc(F)c(C4=CCCO4)c3)nn(-c3nc(C(=O)O)cs3)c2CC2CC2)cc1F
IC50: < 100 nM

Can you share its IC50? I mean this compound: NS(=O)(=O)c1ccc(Cc2c(-c3cccc(-c4cc(F)cc(F)c4)c3)nn(-c3nc(C(=O)O)cs3)c2CC2CC2)cc1F < 100 nM

Taken from patent US10954228B2.
